# study target: CDK6 (Homo sapiens, UniProt Q00534)
# Construct: endogenous in cells
# Sequence (Q00534 whole entry): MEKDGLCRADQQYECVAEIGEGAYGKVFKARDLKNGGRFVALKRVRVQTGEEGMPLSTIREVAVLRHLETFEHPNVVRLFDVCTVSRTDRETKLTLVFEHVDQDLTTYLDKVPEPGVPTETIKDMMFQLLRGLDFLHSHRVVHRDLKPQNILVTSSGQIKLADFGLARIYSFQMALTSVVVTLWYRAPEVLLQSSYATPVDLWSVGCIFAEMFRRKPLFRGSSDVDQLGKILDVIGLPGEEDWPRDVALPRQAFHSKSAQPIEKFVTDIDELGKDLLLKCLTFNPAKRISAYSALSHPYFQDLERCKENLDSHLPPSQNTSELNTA
# procedure text: CDK6 degradation (DC50, Dmax)
# Format: cell-based
Field: Dmax. Provide a value for each of the compounds that follow.

Query: Entry CC(=O)c1c(C)c2cnc(Nc3ccc(N4CCN(CCCNc5cc6c(cc5F)C(=O)N(C5CCC(=O)NC5=O)C6=O)CC4)cn3)nc2n(C2CCCC2)c1=O (stereo not drawn) [Compound 51] has what Dmax?
Reply: > 80%

Query: Next entry: Cc1nc2c(F)cc(-c3nc(Nc4ccc(CC5CCN(C6CN(c7ccc8c(c7)C(=O)N(C7CCC(=O)NC7=O)C8=O)C6)CC5)cn4)ncc3F)cc2n1C(C)C (stereo not drawn) [Compound 148]
Reply: > 60%

Query: Next entry: CC(=O)c1c(C)c2cnc(Nc3ccc(N4CCN(CCCNc5cccc6c5C(=O)N(C5CCC(=O)NC5=O)C6=O)CC4)cn3)nc2n(C2CCCC2)c1=O (stereo not drawn) [Compound 62]
Reply: > 80%

* * *

# study target: CDK4 (Homo sapiens)
# Construct: endogenous in cells
# Sequence (P11802 whole entry): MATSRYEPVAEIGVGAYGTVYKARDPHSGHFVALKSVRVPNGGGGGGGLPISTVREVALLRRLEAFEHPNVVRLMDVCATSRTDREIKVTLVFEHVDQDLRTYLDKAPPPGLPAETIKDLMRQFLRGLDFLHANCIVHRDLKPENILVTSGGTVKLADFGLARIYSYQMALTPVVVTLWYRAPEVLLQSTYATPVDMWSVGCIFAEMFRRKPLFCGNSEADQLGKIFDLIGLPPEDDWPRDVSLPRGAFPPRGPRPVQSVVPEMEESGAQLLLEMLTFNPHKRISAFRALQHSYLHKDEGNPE
# procedure text: CDK4 degradation (DC50, Dmax)
# Type: cell-based
measurement type: DC50

Query: Entry Cc1nc2c(F)cc(-c3nc(Nc4ccc(CN5CCN(C6CN(c7cccc8c7CN(C7CCC(=O)NC7=O)C8=O)C6)CC5)cn4)ncc3F)cc2n1C(C)C (centres unmarked) has what DC50?
Reply: 50 to 200 nM

Query: Next entry: CC(=O)c1c(C)c2cnc(Nc3ccc(N4CCN(CCN5CCN(c6ccc7c(c6)C(=O)N(C6CCC(=O)NC6=O)C7=O)CC5)CC4)cn3)nc2n(C2CCCC2)c1=O (centres unmarked)
Reply: < 50 nM

Query: Next entry: Cc1nc2c(F)cc(-c3nc(Nc4ccc(CN5CCN(CCNc6cccc7c6C(=O)N(C6CCC(=O)NC6=O)C7=O)CC5)cn4)ncc3F)cc2n1C(C)C (centres unmarked)
Reply: 50 to 200 nM

Query: Next entry: Cc1nc2c(F)cc(-c3nc(Nc4ccc(CC5CCN(CC6CCN(c7ccc8c(c7)C(=O)N(C7CCC(=O)NC7=O)C8=O)CC6)CC5)cn4)ncc3F)cc2n1C(C)C (centres unmarked)
Reply: < 50 nM

Query: Next entry: CC(=O)c1c(C)c2cnc(Nc3ccc(N4CCN(CC5CCN(C(=O)N6CCC(N7CCN(c8ccc9c(c8)C(=O)N(C8CCC(=O)NC8=O)C9=O)CC7)CC6)CC5)CC4)cn3)nc2n(C2CCCC2)c1=O (centres unmarked)
Reply: 50 to 200 nM

* * *

# study target: CDK4 (Homo sapiens)
# Construct: endogenous in cells
# procedure text: CDK4 degradation (DC50, Dmax)
# Format: cell-based
measurement type: DC50

Query: Entry CC(=O)c1c(C)c2cnc(Nc3ccc(N4CCN(CCCCNc5ccc6c(c5)C(=O)N(C5CCC(=O)NC5=O)C6=O)CC4)cn3)nc2n(C2CCCC2)c1=O (centres unmarked) [Compound 53] has what DC50?
Reply: 50 to 200 nM

Query: Next entry: CC(=O)c1c(C)c2cnc(Nc3ccc(N4CCN(CCCN(C)c5ccc6c(c5)C(=O)N(C5CCC(=O)NC5=O)C6=O)CC4)cn3)nc2n(C2CCCC2)c1=O (centres unmarked) [Compound 57]
Reply: 50 to 200 nM

Query: Next entry: CC(=O)c1c(C)c2cnc(Nc3ccc(N4CCN(C(=O)N5CCC(N6CCN(c7ccc8c(c7)CN(C7CCC(=O)NC7=O)C8=O)CC6)CC5)CC4)cn3)nc2n(C2CCCC2)c1=O (centres unmarked) [Compound 4]
Reply: > 200 nM

Query: Next entry: CC(=O)c1c(C)c2cnc(Nc3ccc(N4CCN(CCCN(C)c5ccc6c(c5)CN(C5CCC(=O)NC5=O)C6=O)CC4)cn3)nc2n(C2CCCC2)c1=O (centres unmarked) [Compound 58]
Reply: 50 to 200 nM

Query: Next entry: Cc1nc2c(F)cc(-c3nc(Nc4ccc(CN5CCN(CCCNc6ccc7c(c6)CN(C6CCC(=O)NC6=O)C7=O)CC5)cn4)ncc3F)cc2n1C(C)C (centres unmarked) [Compound 74]
Reply: < 50 nM

Query: Next entry: CC(=O)c1c(C)c2cnc(Nc3ccc(N4CCN(C5CCN(C(=O)N6CCC(CCN7CCN(c8ccc9c(c8)C(=O)N(C8CCC(=O)NC8=O)C9=O)CC7)CC6)CC5)CC4)cn3)nc2n(C2CCCC2)c1=O (centres unmarked) [Compound 87]
Reply: 50 to 200 nM

Query: Next entry: CC(=O)c1c(C)c2cnc(Nc3ccc(N4CCN(C(=O)N5CCC(CCC6CCN(c7ccc8c(c7)CN(C7CCC(=O)NC7=O)C8=O)CC6)CC5)CC4)cn3)nc2n(C2CCCC2)c1=O (centres unmarked) [Compound 26]
Reply: > 200 nM

Query: Next entry: Cc1nc2c(F)cc(-c3nc(Nc4ccc(CN5CCN(CCCNc6ccc(N7CCC(=O)NC7=O)cc6)CC5)cn4)ncc3F)cc2n1C(C)C [Compound 107]
Reply: < 50 nM

Query: Next entry: Cc1nc2c(F)cc(-c3nc(Nc4ccc(CC5CCN(C6CCN(c7ccc(NC8CCC(=O)NC8=O)cc7)CC6)CC5)cn4)ncc3F)cc2n1C(C)C (centres unmarked) [Compound 172]
Reply: 50 to 200 nM

Query: Next entry: Cc1nc2c(F)cc(-c3nc(Nc4ccc(CN5CCN(CCNc6ccc7c(c6)C(=O)N(C6CCC(=O)NC6=O)C7)CC5)cn4)ncc3F)cc2n1C(C)C (centres unmarked) [Compound 91]
Reply: < 50 nM

Query: Next entry: Cc1nc2c(F)cc(-c3nc(Nc4ccc(CN5CCN(C6CN(c7ccc8c(c7)CN(C7CCC(=O)NC7=O)C8=O)C6)CC5)cn4)ncc3F)cc2n1C(C)C (centres unmarked) [Compound 97]
Reply: < 50 nM

This collection of values is drawn from patent US20230295118A1.
